Every entry's value here was drawn from patent US20140161803A1.

# tgt: wild-type human uPAR (human, UniProt Q03405 23-305, GPI-anchor on Gly283)
# Sequence (Q03405 23-305): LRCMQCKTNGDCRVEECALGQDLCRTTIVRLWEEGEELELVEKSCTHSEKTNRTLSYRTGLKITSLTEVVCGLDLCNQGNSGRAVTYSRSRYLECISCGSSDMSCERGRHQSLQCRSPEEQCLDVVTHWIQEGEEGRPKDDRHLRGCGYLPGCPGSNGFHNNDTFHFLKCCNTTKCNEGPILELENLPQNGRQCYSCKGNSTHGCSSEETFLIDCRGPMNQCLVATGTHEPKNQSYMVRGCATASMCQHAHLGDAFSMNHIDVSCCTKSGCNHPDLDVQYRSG
# experiment-summary: cell-based or functional assay

- binder: "AL6 (antibody, V domains shown) VH: ELMKPGASVKLSCKATGYSFTGYWIEWVKQRPGHGLEWIGEILPGSDRTNYNEKFKGKATFTADTSSNTAYMQLSSLTTEDSAIYYCARDDYDRGLYIMDYWGQGTSVTVS VL: SLSASLGERVSLTCRASQDIGTSLNWLQQEPDGTIRRLIYATSSLPPGVPKRFSGSRSGSDYSLTISSLESEDFVNYYCLQYATSPYTFGGGTKLEIKR"
  % max inhibition (pro-uPA pre-treat.): "< 20%"
